Test system: GTPase KRas (Homo sapiens), P01116 [G12C]
Sequence (P01116 whole entry G12C): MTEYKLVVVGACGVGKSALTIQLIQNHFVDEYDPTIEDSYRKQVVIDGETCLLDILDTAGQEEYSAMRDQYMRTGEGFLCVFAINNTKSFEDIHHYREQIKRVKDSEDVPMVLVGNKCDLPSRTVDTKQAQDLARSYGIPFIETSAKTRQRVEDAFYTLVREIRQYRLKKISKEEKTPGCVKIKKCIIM
assay summary: Binding affinity to GMP-stabilized FLAG-tagged KRAS G12C mutant (unknown origin) assessed as ratio of Kinact to Ki using desthiobiotin-GTP probe by alphascreen assay
value kind: Ratio (min⁻¹ µM⁻¹)
Give your result in min⁻¹ µM⁻¹ as a bare value.

Entry Nc1nc2c(ncn2[C@@H]2O[C@H](COP(=O)(O)CP(=O)(O)OCCCNC(=O)CCl)[C@@H](O)[C@H]2O)c(=O)[nH]1 has what Ratio? 0.2

// same read-out, input: Nc1nc2c(ncn2[C@@H]2O[C@H](COP(=O)(O)CS(=O)(=O)NCCNC(=O)CCl)[C@@H](O)[C@H]2O)c(=O)[nH]1 0.2

Then what about the molecule Nc1nc2c(ncn2[C@@H]2O[C@H](COP(=O)(O)OP(=O)(O)OCCNC(=O)CCl)[C@@H](O)[C@H]2O)c(=O)[nH]1 ? 95

Another: C=CC(=O)NCCOP(=O)(O)OP(=O)(O)OC[C@H]1O[C@@H](n2cnc3c(=O)[nH]c(N)nc32)[C@H](O)[C@@H]1O 7.6

Lookup CC(C)(CNC(=O)CCl)COP(=O)(O)CP(=O)(O)OC[C@H]1O[C@@H](n2cnc3c(=O)[nH]c(N)nc32)[C@H](O)[C@@H]1O 0.028

Try Nc1nc2c(ncn2[C@@H]2O[C@H](COP(=O)(O)CP(=O)(O)OC3CCN(C(=O)CCl)C3)[C@@H](O)[C@H]2O)c(=O)[nH]1 (some centres not stated) next. 2.4

Repeat for the following molecule: Nc1nc2c(ncn2[C@@H]2O[C@H](COP(=O)(O)CP(=O)(O)OC3CCCN(C(=O)CCl)C3)[C@@H](O)[C@H]2O)c(=O)[nH]1 (mixture of isomers) 0.16
